# Tgt: GST-fused human Keap1 (amino acid residues: 325-642) protein (Homo sapiens (Human), UniProt Q14145)
# Sequence (Q14145 325-624 limits assumed): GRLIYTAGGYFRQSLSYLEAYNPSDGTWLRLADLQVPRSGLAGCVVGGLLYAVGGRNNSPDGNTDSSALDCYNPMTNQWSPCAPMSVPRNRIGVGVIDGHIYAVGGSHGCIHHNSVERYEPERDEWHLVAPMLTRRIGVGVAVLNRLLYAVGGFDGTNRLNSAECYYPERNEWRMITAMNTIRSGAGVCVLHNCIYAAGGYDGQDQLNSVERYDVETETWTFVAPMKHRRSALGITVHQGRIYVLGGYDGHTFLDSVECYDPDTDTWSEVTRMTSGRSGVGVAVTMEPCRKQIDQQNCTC
# Protocol text: FP assay (in vitro): inhibition of binding between Nrf2 and Keap1 by fluorescence polarization
# Experimental conditions: 20 nM GST-fused human Keap1, 10 nM FITC-labeled Nrf2 peptide, 2 hr at room temperature
I'd be grateful if you could share measured IC50 for these entries.

Guide cases for IC50, answers given:
Compound | Result
CC[C@@H]1CN(Cc2cc([C@H](CC(=O)O)c3cc(Cl)c4c(nnn4C)c3C)cc3ccsc23)Cc2nc(O)ccc2O1 [Example 32] | 10 to 30 nM
CC[C@H]1Cc2ccc(N)nc2CN(Cc2cc([C@@H](CC(=O)O)c3ccc4c(nnn4C)c3C)cc3ccsc23)C1 [Example 83] | ≤ 10 nM
CC[C@@H]1CN(Cc2cc([C@H](CC(=O)O)c3cc(C4CC4)c4c(nnn4C)c3C)cc3ccsc23)Cc2nc(O)ccc2O1 [Example 36] | 10 to 30 nM
Cc1c([C@@H](CC(=O)O)c2cc(CN3Cc4nc(O)ccc4O[C@H](C)C3)c3sccc3c2)ccc2c1nnn2C [Example 15] | 10 to 30 nM
CC[C@@H]1CN(Cc2cc([C@@H](CC(=O)O)c3ccc4c(nnn4C)c3C)cc3ccsc23)Cc2nc(NC)ccc2O1 [Example 77] | ≤ 10 nM
CC[C@H]1Cc2cccnc2CN(Cc2cc([C@@H](CC(=O)O)c3ccc4c(nnn4C)c3C)cc3ccsc23)C1 [Example 69] | 10 to 30 nM
CC[C@@H]1CN(Cc2cc(C(CC(=O)O)c3ccc4c(nnn4CC)c3C)cc3ccsc23)Cc2nc(C)ccc2O1 (stereo partly shown) [Example 92] | 30 to 300 nM
CC[C@@H]1CN(Cc2cc([C@@H](CC(=O)O)c3ccc4c(nnn4C)c3C)cc3ccsc23)Cc2nc(O)ccc2O1 [Example 2] | 30 to 300 nM
CC[C@H]1Cc2cccnc2CN(Cc2cc([C@H](CC(=O)O)c3ccc4c(nnn4C)c3C)cc3ccsc23)C1 [Example 70] | ≤ 10 nM

We now examine a further compound.
Record summary for CC[C@H]1Cc2ccc(O)nc2CN(Cc2cc([C@H](CC(=O)O)c3cc(Cl)c4c(nnn4C)c3C)cc3ccsc23)C1 [Example 85] : reported IC50 = ≤ 10 nM

meta.source: patent US20250296939A1
